Cited source for all entries: paper PMC4201977

# Test: Cytosolic stability of optimal epitopes in iMP extracts
# Format: in vitro ADME
# Test Parameters: human, iMP cytosolic extract, pH 7.4
Reported Endpoint: half-life (min)
Express your answer in min, writing the number without its unit.

*Q* I'd like to know its half-life. The molecule in question is CC[C@H](C)[C@H](NC(=O)[C@@H](NC(=O)[C@H](CCC(=O)O)NC(=O)[C@@H]1CCCN1C(=O)[C@H](CO)NC(=O)[C@H](Cc1ccccc1)NC(=O)[C@H](C)NC(=O)[C@@H](N)CCCCN)C(C)C)C(=O)N1CCC[C@H]1C(=O)N[C@@H](CCSC)C(=O)N[C@@H](Cc1ccccc1)C(=O)O
*A* 20.4

###

# Test: Cytosolic stability of optimal epitopes in iMP extracts
# Type: in vitro ADME
# Test Parameters: human, iMP cytosolic extract, pH 7.4
Ends that are not written are not given here.
Reported Endpoint: half-life (min)
Express your answer in min, writing the number without its unit.

*Q* I'd like to know its half-life. The sequence in question is ISPRTLNAW [ISW9]
*A* 9.4

###

# Test: Cytosolic stability of optimal epitopes in iDC extracts
# Format: in vitro ADME
# Test Parameters: human, iDC cytosolic extract, pH 7.4
Ends that are not written are not given here.
Reported Endpoint: half-life (min)
Express your answer in min, writing the number without its unit.

*Q* I'd like to know its half-life. The sequence in question is ISPRTLNAW [ISW9]
*A* 7
